Just for reference, the supplement of paper PMC10307832 is where these values come from.

tested on: NCI-H1355; assay: relative viability (nuclei count vs DMSO), 5 days (fraction); higher = more cells survive; details: first compound 0.6325 µM
experimental-endpoint: relative viability

Please review the entries below; each comes with its answer.
COCC1(CO)C(=O)C2CCN1CC2 (centres undefined) [PRIMA-1MET] + CC(=O)Nc1cccc(-n2c(=O)n(C3CC3)c(=O)c3c(Nc4ccc(I)cc4F)n(C)c(=O)c(C)c32)c1 [Trametinib] (partner 0.02 µM) = 0.462
COCC1(CO)C(=O)C2CCN1CC2 (centres undefined) [PRIMA-1MET] + CS(=O)(=O)N1CCN(Cc2cc3nc(-c4cccc5[nH]ncc45)nc(N4CCOCC4)c3s2)CC1 [Pictilisib] (partner 1 µM) = 0.35
COCC1(CO)C(=O)C2CCN1CC2 (centres undefined) [PRIMA-1MET] + Cc1nc(NC(=O)N2CCC[C@H]2C(N)=O)sc1-c1ccnc(C(C)(C)C(F)(F)F)c1 [Alpelisib] (partner 2 µM) = 0.7

Let us move to another entry and its relative viability.
GET /values?readout=relative viability&item= COCC1(CO)C(=O)C2CCN1CC2 (centres undefined) [PRIMA-1MET] + CS(=O)(=O)CCNCc1ccc(-c2ccc3ncnc(Nc4ccc(OCc5cccc(F)c5)c(Cl)c4)c3c2)o1 [Lapatinib] (partner 2 µM)
0.933

###

system: NCI-H460; experiment: relative viability (nuclei count vs DMSO), 5 days (fraction); higher = more cells survive; conditions: first compound 2.53 µM
Listed next: entries and their corresponding relative viability.
Respond numerically, and do not add a unit to the figure.

O=c1cc(-c2cccc3c2Sc2ccccc2S3)oc(N2CCOCC2)c1 + Nc1ncn([C@H]2C[C@H](O)[C@@H](CO)O2)c(=O)n1 [Decitabine] (partner 2 µM) = 0.468

Could you now look at the following compound, please?
Looking for the measured relative viability of O=c1cc(-c2cccc3c2Sc2ccccc2S3)oc(N2CCOCC2)c1 + CC1(C)CCC(c2ccc(Cl)cc2)=C(CN2CCN(c3ccc(C(=O)NS(=O)(=O)c4ccc(N[C@H](CCN5CCOCC5)CSc5ccccc5)c(S(=O)(=O)C(F)(F)F)c4)cc3)CC2)C1 [Navitoclax] (partner 0.5 µM) , can you help?
1.23

###

tested on: NCI-H1650; experiment: relative viability (nuclei count vs DMSO), 5 days (fraction); higher = more cells survive; details: first compound 20 µM
Values of relative viability strictly less than 0.09 map to Satisfied, and values of at least 0.09 map to Not satisfied.

Is the reported relative viability for COCC1(CO)C(=O)C2CCN1CC2 (stereo unspecified) [PRIMA-1MET] + N=C(N)NC(=N)NCCc1ccccc1 [Phenformin] (partner 250 µM) strictly below 0.09?
Satisfied

Next: COCC1(CO)C(=O)C2CCN1CC2 (stereo unspecified) [PRIMA-1MET] + Nc1ncn([C@H]2C[C@H](O)[C@@H](CO)O2)c(=O)n1 [Decitabine] (partner 2 µM)
Not satisfied

Would you kindly repeat that for COCC1(CO)C(=O)C2CCN1CC2 (stereo unspecified) [PRIMA-1MET] + C[C@@H](Oc1cc(-c2cnn(C3CCNCC3)c2)cnc1N)c1c(Cl)ccc(F)c1Cl [Crizotinib] (partner 1 µM) ?
Not satisfied

COCC1(CO)C(=O)C2CCN1CC2 (stereo unspecified) [PRIMA-1MET] + CS(=O)(=O)CCNCc1ccc(-c2ccc3ncnc(Nc4ccc(OCc5cccc(F)c5)c(Cl)c4)c3c2)o1 [Lapatinib] (partner 2 µM) , same question.
Not satisfied

Next entry: COCC1(CO)C(=O)C2CCN1CC2 (stereo unspecified) [PRIMA-1MET] + CC(=O)Nc1cccc(-n2c(=O)n(C3CC3)c(=O)c3c(Nc4ccc(I)cc4F)n(C)c(=O)c(C)c32)c1 [Trametinib] (partner 0.02 µM)
Satisfied

###

tested on: NCI-H2228; assay: relative viability (nuclei count vs DMSO), 5 days (fraction); higher = more cells survive; conditions: first compound 2 µM
Binary label based on relative viability with cut-off 0.9: below gives True, not below gives False.

Take the molecule COCC1(CO)C(=O)C2CCN1CC2 (stereo not given) [PRIMA-1MET] + COc1cccc2cc(-c3nc([C@H]4CC[C@H](C(=O)O)CC4)n4ncnc(N)c34)[nH]c12 [OSI-027] (partner 0.5 µM) and say whether its relative viability is less than 0.9.
True

###

system: NCI-H1975; experiment: relative viability (nuclei count vs DMSO), 5 days (fraction); higher = more cells survive; conditions: first compound 0.1 µM
experimental-endpoint: relative viability
Lab note: write the figure by itself, no unit.

Worked examples follow.
O=c1cc(N2CCOCC2)oc2c(-c3cccc4c3sc3ccccc34)cccc12 + Nc1ncn([C@H]2C[C@H](O)[C@@H](CO)O2)c(=O)n1 [Decitabine] (partner 2 µM) = 0.394
CCN(CC)CCCCNc1ncc2cc(-c3cc(OC)cc(OC)c3)c(NC(=O)NC(C)(C)C)nc2n1 + Cc1nc(Nc2ncc(C(=O)Nc3c(C)cccc3Cl)s2)cc(N2CCN(CCO)CC2)n1 [Dasatinib] (partner 0.075 µM) = 0.458

In the following, a different compound is considered.
May I ask what relative viability has been recorded for CCN(CC)CCCCNc1ncc2cc(-c3cc(OC)cc(OC)c3)c(NC(=O)NC(C)(C)C)nc2n1 + O=C(CCCCCCC(=O)Nc1ccccc1)NO [Vorinostat] (partner 1 µM) ?
0.853

###

test system: NCI-H2228; experiment: relative viability (nuclei count vs DMSO), 5 days (fraction); higher = more cells survive; conditions: first compound 0.08 µM
Please assign Condition not met whenever relative viability is at or above 0.8, and Condition met whenever it is below.

O=c1cc(-c2cccc3c2Sc2ccccc2S3)oc(N2CCOCC2)c1 + Nc1nc2[nH]cc(CCc3ccc(C(=O)N[C@@H](CCC(=O)O)C(=O)O)cc3)c2c(=O)[nH]1 [Pemetrexed] (partner 0.2 µM) = Condition met

I'd appreciate it if you could check whether O=c1cc(-c2cccc3c2Sc2ccccc2S3)oc(N2CCOCC2)c1 + CC(=O)Nc1cccc(-n2c(=O)n(C3CC3)c(=O)c3c(Nc4ccc(I)cc4F)n(C)c(=O)c(C)c32)c1 [Trametinib] (partner 0.02 µM) has relative viability smaller than 0.8.
Condition met

Also check COc1nc(C)cnc1NS(=O)(=O)c1cccnc1-c1ccc(-c2nnco2)cc1 [Zibotentan] + COc1cc2c(Oc3ccc(NC(=O)C4(C(=O)Nc5ccc(F)cc5)CC4)cc3F)ccnc2cc1OCCCN1CCOCC1 [Foretinib] (partner 0.25 µM)
Condition met

Continue with O=c1cc(-c2cccc3c2Sc2ccccc2S3)oc(N2CCOCC2)c1 + CC1(C)CCC(c2ccc(Cl)cc2)=C(CN2CCN(c3ccc(C(=O)NS(=O)(=O)c4ccc(N[C@H](CCN5CCOCC5)CSc5ccccc5)c(S(=O)(=O)C(F)(F)F)c4)cc3)CC2)C1 [Navitoclax] (partner 0.5 µM)
Condition not met

###

# relative viability listing for each entry below
tested on: NCI-H1703; assay: relative viability (nuclei count vs DMSO), 5 days (fraction); higher = more cells survive; settings: first compound 0.253 µM
Output spec: single numeric token, no unit.

Worked examples, 3 compounds total:
O=c1cc(-c2cccc3c2Sc2ccccc2S3)oc(N2CCOCC2)c1 + CS(=O)(=O)N1CCN(Cc2cc3nc(-c4cccc5[nH]ncc45)nc(N4CCOCC4)c3s2)CC1 [Pictilisib] (partner 1 µM) = 0.25
COc1nc(C)cnc1NS(=O)(=O)c1cccnc1-c1ccc(-c2nnco2)cc1 [Zibotentan] + NC(=O)Nc1cc(-c2cccc(F)c2)sc1C(=O)N[C@H]1CCCNC1 [AZD7762] (partner 0.2 µM) = 0.114
COc1nc(C)cnc1NS(=O)(=O)c1cccnc1-c1ccc(-c2nnco2)cc1 [Zibotentan] + CC(C)C[C@H](NC(=O)[C@H](Cc1ccccc1)NC(=O)c1cnccn1)B(O)O [Bortezomib] (partner 0.002 µM) = 0.372

Value lookup for relative viability; key = O=c1cc(-c2cccc3c2Sc2ccccc2S3)oc(N2CCOCC2)c1 + COc1cc2c(Oc3ccc(NC(=O)C4(C(=O)Nc5ccc(F)cc5)CC4)cc3F)ccnc2cc1OCCCN1CCOCC1 [Foretinib] (partner 0.25 µM)
0.421

###

system: NCI-H1355; experiment: relative viability (nuclei count vs DMSO), 5 days (fraction); higher = more cells survive; details: first compound 0.08 µM
experimental-endpoint: relative viability
Could you keep your reply to the number by itself?

Example entries begin here.
COc1nc(C)cnc1NS(=O)(=O)c1cccnc1-c1ccc(-c2nnco2)cc1 [Zibotentan] + CC(=O)c1c(C)c2cnc(Nc3ccc(N4CCNCC4)cn3)nc2n(C2CCCC2)c1=O [Palbociclib] (partner 0.5 µM) = 0.407
COc1nc(C)cnc1NS(=O)(=O)c1cccnc1-c1ccc(-c2nnco2)cc1 [Zibotentan] + CC(C)C[C@H](NC(=O)[C@H](Cc1ccccc1)NC(=O)c1cnccn1)B(O)O [Bortezomib] (partner 0.002 µM) = 1.2
O=c1cc(-c2cccc3c2Sc2ccccc2S3)oc(N2CCOCC2)c1 + Cc1cc(Nc2cc(N3CCN(C)CC3)nc(Sc3ccc(NC(=O)C4CC4)cc3)n2)n[nH]1 [Tozasertib] (partner 0.1 µM) = 0.521
O=c1cc(-c2cccc3c2Sc2ccccc2S3)oc(N2CCOCC2)c1 + CC1(C)CCC(c2ccc(Cl)cc2)=C(CN2CCN(c3ccc(C(=O)NS(=O)(=O)c4ccc(N[C@H](CCN5CCOCC5)CSc5ccccc5)c(S(=O)(=O)C(F)(F)F)c4)cc3)CC2)C1 [Navitoclax] (partner 0.5 µM) = 0.982
O=c1cc(-c2cccc3c2Sc2ccccc2S3)oc(N2CCOCC2)c1 + NC(=O)Nc1cc(-c2cccc(F)c2)sc1C(=O)N[C@H]1CCCNC1 [AZD7762] (partner 0.2 µM) = 0.703
O=c1cc(-c2cccc3c2Sc2ccccc2S3)oc(N2CCOCC2)c1 + Cc1nc(Nc2ncc(C(=O)Nc3c(C)cccc3Cl)s2)cc(N2CCN(CCO)CC2)n1 [Dasatinib] (partner 0.075 µM) = 0.754

What does the record list as relative viability for O=c1cc(-c2cccc3c2Sc2ccccc2S3)oc(N2CCOCC2)c1 + CS(=O)(=O)N1CCN(Cc2cc3nc(-c4cccc5[nH]ncc45)nc(N4CCOCC4)c3s2)CC1 [Pictilisib] (partner 1 µM) ?
0.457

What about COc1nc(C)cnc1NS(=O)(=O)c1cccnc1-c1ccc(-c2nnco2)cc1 [Zibotentan] + CC(=O)Nc1cccc(-n2c(=O)n(C3CC3)c(=O)c3c(Nc4ccc(I)cc4F)n(C)c(=O)c(C)c32)c1 [Trametinib] (partner 0.02 µM) ?
0.399

Another: COc1nc(C)cnc1NS(=O)(=O)c1cccnc1-c1ccc(-c2nnco2)cc1 [Zibotentan] + Cc1nc(Nc2ncc(C(=O)Nc3c(C)cccc3Cl)s2)cc(N2CCN(CCO)CC2)n1 [Dasatinib] (partner 0.075 µM)
0.691

One more compound: O=c1cc(-c2cccc3c2Sc2ccccc2S3)oc(N2CCOCC2)c1 + Nc1ncn([C@H]2C[C@H](O)[C@@H](CO)O2)c(=O)n1 [Decitabine] (partner 2 µM)
0.374
